- EXPERIMENTAL_TARGET: vanilloid receptor 1 (VR1/TRPV1 receptor) (Homo sapiens, UniProt Q8NER1)
- Construct: expressed in transfected cells; host or cells: CHO K1 cells (ECACC), stably transfected
- Sequence (Q8NER1 whole entry): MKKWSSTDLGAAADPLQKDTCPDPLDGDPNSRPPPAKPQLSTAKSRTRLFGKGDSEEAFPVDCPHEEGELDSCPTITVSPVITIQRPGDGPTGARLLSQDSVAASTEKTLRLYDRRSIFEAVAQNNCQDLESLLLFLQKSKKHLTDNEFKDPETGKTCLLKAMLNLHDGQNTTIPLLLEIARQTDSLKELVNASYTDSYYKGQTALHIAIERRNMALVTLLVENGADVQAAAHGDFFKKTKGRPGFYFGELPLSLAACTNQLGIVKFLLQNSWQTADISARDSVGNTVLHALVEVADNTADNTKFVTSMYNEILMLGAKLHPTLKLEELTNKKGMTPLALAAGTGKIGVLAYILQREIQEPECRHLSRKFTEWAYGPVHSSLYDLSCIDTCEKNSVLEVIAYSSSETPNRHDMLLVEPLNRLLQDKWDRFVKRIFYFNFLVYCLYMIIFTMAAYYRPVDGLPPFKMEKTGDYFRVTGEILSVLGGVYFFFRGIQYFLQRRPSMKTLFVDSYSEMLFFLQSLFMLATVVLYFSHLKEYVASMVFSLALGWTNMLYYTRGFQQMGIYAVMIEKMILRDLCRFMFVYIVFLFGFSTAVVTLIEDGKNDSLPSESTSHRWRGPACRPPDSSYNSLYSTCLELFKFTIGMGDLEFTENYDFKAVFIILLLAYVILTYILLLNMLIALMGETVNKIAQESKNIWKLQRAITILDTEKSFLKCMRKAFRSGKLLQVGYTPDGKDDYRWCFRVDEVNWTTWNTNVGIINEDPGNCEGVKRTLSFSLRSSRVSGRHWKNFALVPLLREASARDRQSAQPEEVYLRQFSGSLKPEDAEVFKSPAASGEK
- ASSAY_DETAILS: VR1/TRPV1 receptor affinity, capsaicin stimulus (human)
- Type: cell-based, human being
- PROTOCOL_CONDITIONS: Tables 8-12, read-out: (f) Ki (human being) [nM] Cap
Doc: threshold 10 nM (exclusive). Items with Ki beneath it return rule met; others return rule not met.

Query :: Lab note: confirm whether the reported Ki for this compound is below 10 nM, equality not counting. compound: CC(C(=O)NCc1cc(C(C)(C)C)nn1-c1cccc(Cl)c1)c1ccc(CS(C)(=O)=O)c(F)c1 (stereo not drawn)
Result :: rule not met

Query :: Lab note: confirm whether the reported Ki for this compound is below 10 nM, equality not counting. compound: CC(C)c1cccc(-n2nc(C(F)(F)F)cc2CNC(=O)C(C)c2ccc(CNS(N)(=O)=O)c(F)c2)c1 (stereo not drawn)
Result :: rule met

Query :: Lab note: confirm whether the reported Ki for this compound is below 10 nM, equality not counting. compound: CCS(=O)(=O)NCc1ccc(C(C)C(=O)NCc2cc(C(F)(F)F)nn2-c2cccc(Cl)c2)cc1F (stereo not drawn)
Result :: rule met

Query :: Lab note: confirm whether the reported Ki for this compound is below 10 nM, equality not counting. compound: CC(C)(C)c1cc(CNC(=O)Cc2ccc(CNS(C)(=O)=O)c(F)c2)n(-c2cccc(Cl)c2)n1
Result :: rule not met

Query :: Lab note: confirm whether the reported Ki for this compound is below 10 nM, equality not counting. compound: CC(C)(C)c1cc(CNC(=O)Nc2cc(F)c(CNS(C)(=O)=O)c(F)c2)n(-c2cccc(Cl)c2)n1
Result :: rule met

Query :: Lab note: confirm whether the reported Ki for this compound is below 10 nM, equality not counting. compound: CC(C(=O)NCc1cc(C(F)(F)F)nn1-c1cccc(Cl)c1)c1ccc(C(=O)Nc2ccc(F)cc2)c(F)c1 (stereo not drawn)
Result :: rule met

Query :: Lab note: confirm whether the reported Ki for this compound is below 10 nM, equality not counting. compound: COc1cc(NC(=O)NCc2cc(C(C)(C)C)nn2-c2cccc(Cl)c2)ccc1CNS(C)(=O)=O
Result :: rule met

Query :: Lab note: confirm whether the reported Ki for this compound is below 10 nM, equality not counting. compound: NS(=O)(=O)NCc1ccc(NC(=O)NCc2cc(C(F)(F)F)nn2-c2ccc(F)c(Cl)c2)cc1
Result :: rule not met

Query :: Lab note: confirm whether the reported Ki for this compound is below 10 nM, equality not counting. compound: O=C(NCc1cc(C(F)(F)F)nn1-c1cccc(Cl)c1)Nc1ccc(C(=O)NCCO)c(F)c1
Result :: rule not met

Query :: Lab note: confirm whether the reported Ki for this compound is below 10 nM, equality not counting. compound: CS(=O)(=O)CCc1ccc(NC(=O)NCc2cc(C3CC3)nn2-c2cccc(Cl)c2)cc1F
Result :: rule not met

Query :: Lab note: confirm whether the reported Ki for this compound is below 10 nM, equality not counting. compound: CC(C)c1cccc(-n2nc(C(F)(F)F)cc2CNC(=O)Nc2ccc(CNS(N)(=O)=O)cc2)c1
Result :: rule met

Query :: Lab note: confirm whether the reported Ki for this compound is below 10 nM, equality not counting. compound: CC(C(=O)NCc1cc(C(F)(F)F)nn1-c1cccc(F)c1)c1ccc(CNS(C)(=O)=O)c(F)c1 (stereo not drawn)
Result :: rule met

Query :: Lab note: confirm whether the reported Ki for this compound is below 10 nM, equality not counting. compound: CC(C(=O)NCc1cc(C(F)(F)F)nn1-c1cccc(Cl)c1)c1ccc(S(C)(=O)=O)c(F)c1 (stereo not drawn) [Example D2]
Result :: rule not met

Query :: Lab note: confirm whether the reported Ki for this compound is below 10 nM, equality not counting. compound: CC(C(=O)NCc1cc(C(F)(F)F)nn1-c1cccc(Cl)c1)c1ccc(CS(C)(=O)=O)c(F)c1 (stereo not drawn)
Result :: rule not met

Query :: Lab note: confirm whether the reported Ki for this compound is below 10 nM, equality not counting. compound: CC(C(=O)NCc1cc(C(F)(F)F)nn1-c1cccc(C(F)(F)F)c1)c1ccc(CNS(C)(=O)=O)c(F)c1 (stereo not drawn)
Result :: rule met

###

Kindly supply the reported inhibition at 5 µM values for the records listed here.
- EXPERIMENTAL_TARGET: vanilloid receptor 1 (VR1/TRPV1 receptor) (Homo sapiens)
- Construct: expressed in transfected cells; host or cells: CHO K1 cells (ECACC), stably transfected
- ASSAY_DETAILS: VR1/TRPV1 receptor affinity, capsaicin stimulus (human)
- Type: cell-based, human being
- PROTOCOL_CONDITIONS: @ 5 μM, Tables 8-12, read-out: (f) Ki (human being) [nM] Cap: inhibition (as a percentage)
Field: numeric (%). Do not append units.

Query :: Given the compound CN(C(=O)Nc1ccc(C(=O)NC2CCOCC2)c(F)c1)c1cc(C(F)(F)F)nn1-c1cccc(Cl)c1 , what is its reported inhibition at 5 µM?
Result :: 49

Query :: Given the compound CC(C(=O)NCc1cc(C(F)(F)F)nn1-c1ccc(F)c(F)c1)c1ccc(N2CCCS2(=O)=O)c(F)c1 (stereo not shown) , what is its reported inhibition at 5 µM?
Result :: 54

Query :: Given the compound CN(C)Cc1ccc(NC(=O)NCc2cc(C(F)(F)F)nn2-c2cccc(Cl)c2)cc1F , what is its reported inhibition at 5 µM?
Result :: 18

Query :: Given the compound O=C(NCc1cc(C(F)(F)F)nn1-c1cccc(F)c1)Nc1ccc(N2CCCC2)c(F)c1 , what is its reported inhibition at 5 µM?
Result :: 13

Query :: Given the compound CC(C(=O)NCc1cc(C(F)(F)F)nn1-c1cccc(F)c1)c1ccc(S(C)(=O)=O)c(F)c1 (stereo not shown) , what is its reported inhibition at 5 µM?
Result :: 55

Query :: Given the compound COc1cc(NC(=O)N(C)c2cc(C(C)(C)C)nn2-c2cccc(Cl)c2)ccc1C(=O)O , what is its reported inhibition at 5 µM?
Result :: 52

Query :: Given the compound CC(C)(C)c1cc(CNC(=O)Nc2ccc(C(=O)N3CCOCC3)c(F)c2)n(-c2cccc(Cl)c2)n1 , what is its reported inhibition at 5 µM?
Result :: 38

Query :: Given the compound O=C(NCc1cc(C(F)(F)F)nn1-c1cccc(Cl)c1)Nc1ccc(CN2CCCCC2)c(F)c1 , what is its reported inhibition at 5 µM?
Result :: 17

Query :: Given the compound CC(C(=O)NCc1cc(C(F)(F)F)nn1-c1cccc(Cl)c1)c1ccc(C(=O)N2CCOCC2)c(F)c1 (stereo not shown) , what is its reported inhibition at 5 µM?
Result :: 32

Query :: Given the compound CC(C(=O)N(C)c1cc(C(F)(F)F)nn1-c1cccc(Cl)c1)c1ccc(C(=O)NC2CCOCC2)c(F)c1 (stereo not shown) , what is its reported inhibition at 5 µM?
Result :: 24.8

Query :: Given the compound NCc1ccc(NC(=O)NCc2cc(C(F)(F)F)nn2-c2cccc(Cl)c2)cc1F , what is its reported inhibition at 5 µM?
Result :: 37

Query :: Given the compound O=C(NCc1cc(C(F)(F)F)nn1-c1cccc(Cl)c1)Nc1ccc(CN2CCCC2)cc1 , what is its reported inhibition at 5 µM?
Result :: 43

Query :: Given the compound CC(C(=O)NCc1cc(C(C)(C)C)nn1-c1cccc(Cl)c1)c1ccc(C(=O)N2CCOCC2)c(F)c1 (stereo not shown) , what is its reported inhibition at 5 µM?
Result :: 42

Query :: Given the compound CC(C(=O)NCc1cc(C(F)(F)F)nn1-c1cccc(Cl)c1)c1ccc(CN(C)C)c(F)c1 (stereo not shown) , what is its reported inhibition at 5 µM?
Result :: 36

Query :: Given the compound O=C(NCc1cc(C(F)(F)F)nn1-c1cccc(F)c1)Nc1ccc(N2CC(O)C2)c(F)c1 , what is its reported inhibition at 5 µM?
Result :: 50

Query :: Given the compound CC(C)(C)c1cc(CNC(=O)Nc2ccc(CN3CCCC3)c(F)c2)n(-c2cccc(Cl)c2)n1 , what is its reported inhibition at 5 µM?
Result :: 43

###

- EXPERIMENTAL_TARGET: vanilloid receptor 1 (VR1/TRPV1 receptor) (Homo sapiens)
- Construct: expressed in transfected cells; host or cells: CHO K1 cells (ECACC), stably transfected
- ASSAY_DETAILS: VR1/TRPV1 receptor affinity, capsaicin stimulus (human)
- Format: cell-based, human being
- PROTOCOL_CONDITIONS: Tables 8-12, read-out: (f) Ki (human being) [nM] Cap
MEASUREMENT_KIND: log10 Ki (log10 of the value in nM)
Heads up: the numbers are on a log10 scale; they represent Ki in nM.

Query :: Given the compound CC(C)(C)c1cc(CNC(=O)Nc2ccc(CNS(C)(=O)=O)c(F)c2)n(-c2cccc(C(F)(F)F)c2)n1 [Example B54] , what is its reported log10 Ki?
Result :: 0.90

Query :: Given the compound CS(=O)(=O)NCc1ccc(NC(=O)NCc2cc(C(F)(F)F)nn2-c2cccc(F)c2)cc1F [Example B48] , what is its reported log10 Ki?
Result :: 1.60

Query :: Given the compound Cc1cccc(-n2nc(C(F)(F)F)cc2CNC(=O)Nc2ccc(CNS(C)(=O)=O)c(F)c2)c1 [Example B87] , what is its reported log10 Ki?
Result :: 1.18

Query :: Given the compound CC(C(=O)NCc1cc(C(F)(F)F)nn1-c1ccc(F)c(Cl)c1)c1ccc(S(C)(=O)=O)c(F)c1 (centres unmarked) [Example D4] , what is its reported log10 Ki?
Result :: 1.61

Query :: Given the compound CC(C(=O)NCc1cc(C(C)(C)C)nn1-c1cccc(Cl)c1)c1ccc(CN(C)S(C)(=O)=O)c(F)c1 (centres unmarked) [Example B30] , what is its reported log10 Ki?
Result :: 1.59

Query :: Given the compound CC(C)(C)c1cc(CNC(=O)Nc2ccc(CNS(N)(=O)=O)c(F)c2)n(-c2ccc(F)c(F)c2)n1 [Example B69] , what is its reported log10 Ki?
Result :: 1.48

Query :: Given the compound CC(C(=O)NCc1cc(C(C)(C)C)nn1-c1cccc(Cl)c1)c1ccc(C(=O)Nc2ccc(F)cc2)c(F)c1 (centres unmarked) [Example E44] , what is its reported log10 Ki?
Result :: 0.00

Query :: Given the compound CC(C(=O)NCc1cc(C2CC2)nn1-c1cccc(Cl)c1)c1ccc(CNS(N)(=O)=O)c(F)c1 (centres unmarked) [Example B95] , what is its reported log10 Ki?
Result :: 1.34

Query :: Given the compound CC(C(=O)NCc1cc(C(F)(F)F)nn1-c1cccc(Cl)c1)c1ccc(CN)c(F)c1 (centres unmarked) [Example B42] , what is its reported log10 Ki?
Result :: 1.66

Query :: Given the compound CC(C)(C)c1cc(CNC(=O)Nc2ccc(CNS(C)(=O)=O)c(F)c2)n(-c2ccc(F)c(Cl)c2)n1 [Example B51] , what is its reported log10 Ki?
Result :: 1.18

Query :: Given the compound CNCc1ccc(NC(=O)NCc2cc(C(F)(F)F)nn2-c2cccc(Cl)c2)cc1 [Example B14] , what is its reported log10 Ki?
Result :: 1.81

Query :: Given the compound CC(C(=O)NCc1cc(C(F)(F)F)nn1-c1cccc(Cl)c1)c1ccc(CNS(C)(=O)=O)cc1 (centres unmarked) [Example B5] , what is its reported log10 Ki?
Result :: 0.95

Query :: Given the compound CC(C(=O)NCc1cc(C(C)(C)C)nn1-c1cccc(F)c1)c1ccc(CNS(C)(=O)=O)c(F)c1 (centres unmarked) [Example B9] , what is its reported log10 Ki?
Result :: 0.78

Query :: Given the compound COc1cc(C(C)C(=O)NCc2cc(C(C)(C)C)nn2-c2cccc(Cl)c2)ccc1CNS(C)(=O)=O (centres unmarked) [Example B98] , what is its reported log10 Ki?
Result :: 0.48

Query :: Given the compound CC(C)(C)c1cc(CNC(=O)Nc2ccc(CN)c(F)c2)n(-c2cccc(Cl)c2)n1 [Example B40] , what is its reported log10 Ki?
Result :: 1.96

Query :: Given the compound NS(=O)(=O)NCc1ccc(NC(=O)NCc2cc(C(F)(F)F)nn2-c2cccc(F)c2)cc1 [Example B77] , what is its reported log10 Ki?
Result :: 1.64

Query :: Given the compound CS(=O)(=O)NCc1ccc(NC(=O)NCc2cc(C(F)(F)F)nn2-c2cccc(Cl)c2)cc1F [Example B52] , what is its reported log10 Ki?
Result :: 0.95

Query :: Given the compound CC(C)(C)c1cc(CNC(=O)Nc2ccc(N3CC(O)C3)c(F)c2)n(-c2cccc(Cl)c2)n1 [Example C7] , what is its reported log10 Ki?
Result :: 1.18

Query :: Given the compound CC(C(=O)NCc1cc(C(C)(C)C)nn1-c1cccc(Cl)c1)c1ccc(CNS(C)(=O)=O)cc1 (centres unmarked) [Example B6] , what is its reported log10 Ki?
Result :: 0.85

Query :: Given the compound CS(=O)(=O)CCc1ccc(NC(=O)NCc2cc(C(F)(F)F)nn2-c2ccc(F)c(Cl)c2)cc1F [Example D28] , what is its reported log10 Ki?
Result :: 1.51

Query :: Given the compound CS(=O)(=O)NCc1ccc(NC(=O)NCc2cc(C(F)(F)F)nn2-c2ccc(F)c(F)c2)cc1F [Example B49] , what is its reported log10 Ki?
Result :: 1.04

Query :: Given the compound O=C(NCc1cc(C(F)(F)F)nn1-c1cccc(Cl)c1)Nc1ccc(N2CCOCC2)c(F)c1 [Example C5] , what is its reported log10 Ki?
Result :: 1.64

Query :: Given the compound CCNCc1ccc(NC(=O)NCc2cc(C(F)(F)F)nn2-c2cccc(Cl)c2)cc1F [Example B24] , what is its reported log10 Ki?
Result :: 1.74
